target: L-methionine gamma-lyase (Fusobacterium nucleatum subsp. nucleatum); assay: Inhibition of Fusobacterium nucleatum ATCC 25586 recombinant wild type MGL expressed in Escherichia coli BL21 (DE3) assessed as formation of 2-ketobutyrate using L-methionine as substrate by enzymatic assay; set-up: concentration or dose not given beside the values; details: concentration not given here
Please note: MET applies when inhibition is 10% or greater, and NOT MET applies otherwise.

-- ask For this molecule, is measured inhibition 10% or higher? O=C(O)c1cnc(OCC(F)(F)F)cn1
-- reply NOT MET

-- ask For this molecule, is measured inhibition 10% or higher? Cc1cccc2c(C(C(=O)O)C(F)(F)F)c[nH]c12 (stereo unspecified)
-- reply NOT MET

-- ask For this molecule, is measured inhibition 10% or higher? Nc1cc(F)c(OCC2CCC2)c(F)c1
-- reply MET

-- ask For this molecule, is measured inhibition 10% or higher? CC(C)(C)OC(=O)N1CCC(CN)(c2ccccc2C(F)(F)F)CC1
-- reply MET

-- ask For this molecule, is measured inhibition 10% or higher? O=C(O)c1ccnc(OC(F)(F)F)c1
-- reply MET

-- ask For this molecule, is measured inhibition 10% or higher? O=C(O)c1cc(C(F)(F)F)nn1-c1ccccc1
-- reply MET

-- ask For this molecule, is measured inhibition 10% or higher? CC(C)(C)OC(=O)N1CCC(C(=O)O)(c2ccc(C(F)(F)F)cc2)CC1
-- reply MET

-- ask For this molecule, is measured inhibition 10% or higher? CC(C)(C)OC(=O)N1CCC(CN)(Cc2ccccc2C(F)(F)F)CC1
-- reply MET

-- ask For this molecule, is measured inhibition 10% or higher? CC(C)(CC(=O)O)c1ccc(F)cc1
-- reply NOT MET

-- ask For this molecule, is measured inhibition 10% or higher? O=C(O)c1cn(-c2ccc(F)cc2)cn1
-- reply NOT MET

-- ask For this molecule, is measured inhibition 10% or higher? CC(C)(C)OC(=O)N1CCC(CN)(Cc2ccccc2F)CC1
-- reply MET

-- ask For this molecule, is measured inhibition 10% or higher? O=C(O)c1cn(-c2ccc(C(F)(F)F)cc2)cn1
-- reply MET

-- ask For this molecule, is measured inhibition 10% or higher? CC(C)(C)OC(=O)N[C@H]1CC[C@H](N2Cc3cccc(F)c3C2=O)CC1
-- reply MET

-- ask For this molecule, is measured inhibition 10% or higher? CC(C)(CC(=O)O)c1ccc(C(F)(F)F)cc1
-- reply MET

-- ask For this molecule, is measured inhibition 10% or higher? CCOC(=O)c1nc(-c2ccccc2F)no1
-- reply MET

-- ask For this molecule, is measured inhibition 10% or higher? CC(C)(C)OC(=O)N1CCC(CN)(Cc2ccc(F)cc2)CC1
-- reply MET

-- ask For this molecule, is measured inhibition 10% or higher? CC(C)(C)OC(=O)N1CCC(CN)(c2cccc(F)c2)CC1
-- reply MET

-- ask For this molecule, is measured inhibition 10% or higher? O=C(O)c1ccnc(OC(F)F)c1
-- reply NOT MET

-- ask For this molecule, is measured inhibition 10% or higher? O=C(O)c1cn(-c2cccc(F)c2)cn1
-- reply NOT MET

-- ask For this molecule, is measured inhibition 10% or higher? O=C(O)c1cnn(-c2ccc(F)cc2)c1
-- reply NOT MET

-- ask For this molecule, is measured inhibition 10% or higher? CC(C)(Cc1ccc(C(F)(F)F)cc1)C(=O)O
-- reply NOT MET

-- ask For this molecule, is measured inhibition 10% or higher? CC(C)(C)OC(=O)N[C@H]1CC[C@H](N2Cc3ccc(F)cc3C2=O)CC1
-- reply NOT MET

-- ask For this molecule, is measured inhibition 10% or higher? CC(C)(C)OC(=O)N1CCC(CN)(c2ccc(F)cc2)CC1
-- reply MET

-- ask For this molecule, is measured inhibition 10% or higher? O=C(O)c1cn(-c2ccccc2F)cn1
-- reply NOT MET

-- ask For this molecule, is measured inhibition 10% or higher? CC(C)(Cc1cccc(C(F)(F)F)c1)C(=O)O
-- reply MET

-- ask For this molecule, is measured inhibition 10% or higher? Cc1ccc2[nH]cc(C(C(=O)O)C(F)(F)F)c2c1 (stereo unspecified)
-- reply NOT MET

The reported measurements were obtained from ChEMBL document CHEMBL4837259.
